# SUBJECT_OF_TEST: Recombinant human FGFR1 (Homo sapiens, UniProt P11362)
# Sequence (P11362 22-822): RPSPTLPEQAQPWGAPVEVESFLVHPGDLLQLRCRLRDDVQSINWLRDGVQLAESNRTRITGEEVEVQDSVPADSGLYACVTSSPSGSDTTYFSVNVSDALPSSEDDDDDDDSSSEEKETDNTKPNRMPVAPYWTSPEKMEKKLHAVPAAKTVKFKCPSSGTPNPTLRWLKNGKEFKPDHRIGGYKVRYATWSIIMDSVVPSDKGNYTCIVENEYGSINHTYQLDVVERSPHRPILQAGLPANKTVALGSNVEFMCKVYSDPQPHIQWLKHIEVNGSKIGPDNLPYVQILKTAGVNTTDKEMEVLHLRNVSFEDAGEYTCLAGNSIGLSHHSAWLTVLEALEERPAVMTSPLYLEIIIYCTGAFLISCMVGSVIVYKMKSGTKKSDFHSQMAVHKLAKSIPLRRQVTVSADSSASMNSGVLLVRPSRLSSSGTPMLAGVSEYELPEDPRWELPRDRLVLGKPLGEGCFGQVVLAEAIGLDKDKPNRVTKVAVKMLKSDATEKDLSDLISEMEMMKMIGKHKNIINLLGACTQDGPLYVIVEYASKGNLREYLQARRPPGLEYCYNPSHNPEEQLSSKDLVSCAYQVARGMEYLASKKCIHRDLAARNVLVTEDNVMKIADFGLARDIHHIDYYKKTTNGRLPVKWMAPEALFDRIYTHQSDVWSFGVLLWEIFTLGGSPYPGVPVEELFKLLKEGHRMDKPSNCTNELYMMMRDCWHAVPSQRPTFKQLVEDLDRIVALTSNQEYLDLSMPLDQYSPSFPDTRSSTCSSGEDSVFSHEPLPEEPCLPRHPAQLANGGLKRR
# EXPERIMENT_NOTES: Transcreener Kinase Assay of FGFR1
# Format: biochemical
# CONDITION_NOTES: read-out: FGFR1 (FP) IC50
READOUT_TYPE: pIC50
// scale note: pIC50 = -log10(conc_M); give the bare number

In the examples that follow, each entry is paired with its recorded pIC50.
CCN1CCN(c2ccc(Nc3ncc(CCc4cc(C(=O)NOC)cc5c4CCO5)cn3)cc2)CC1 [Compound 6]	6.04
CNC(=O)c1cc(CCc2cnc(Nc3cnn([C@H]4CCCNC4)c3)nc2)c(F)c(OC)c1 [Compound 163]	8.15
CCN1CCN(c2ccc(Nc3ncc(CCc4cc(C(=O)NOC)cc(OC)c4Cl)cn3)cc2)CC1 [Compound 59]	8.52

Q: Fill in the blank: the reported pIC50 of CNC(=O)c1cc(CCc2cnc(Nc3cnn([C@@H]4CCN(C)C4)c3)nc2)c(F)c(OC)c1 [Compound 169] is ____.
Ans: 7.82

Q: Fill in the blank: the reported pIC50 of CNC(=O)c1cc(CCc2cnc(Nc3ccc(OC)nc3)nc2)c(F)c(OC)c1 [Compound 30] is ____.
Ans: 7.54

Q: Fill in the blank: the reported pIC50 of CNC(=O)c1cc(CCc2cnc(Nc3ccc(N4CCCCC4=O)cc3)nc2)c(F)c(OC)c1 [Compound 145] is ____.
Ans: 7.43
